System: MILI (PIWIL2) piRISC loaded with piRNA #1 (26 nt);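 note: 1 nM active piRISC with 0.1 nM target library at 33 °C single turnover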
Experiment: pre-steady-state target cleavage rate (min^-1); guide: piRNA #1 5'p-UGAGGUAGUAGGUUGUAUAGUAUCCA; MIWI and MILI are mouse PIWI proteins and EfPiwi is from a freshwater sponge; tags in brackets are library labels; higher = faster piRNA-guided slicing of the target
Settings: auxiliary factor: 500 nM mouse GTSF1
Cut-off 0.01 on pre-steady-state target cleavage rate, inclusive. At or above means Condition met; below means Condition not met.

[
  {
    "ORDERED RESIDUES": "GGAGACCUAUGAAUACAACCUACUACCUACA",
    "ASSIGNED LABEL": "Condition not met"
  },
  {
    "ORDERED RESIDUES": "GGAGUGGAUAGCUAUACAACCUACUACCUCA",
    "ASSIGNED LABEL": "Condition met"
  },
  {
    "ORDERED RESIDUES": "GGAGACCUAUGUAUACAACCUACUACGCUCA",
    "ASSIGNED LABEL": "Condition met"
  },
  {
    "ORDERED RESIDUES": "GGAGAGGAUACUAUUCAACCUACUACCUCA",
    "ASSIGNED LABEL": "Condition met"
  }
]
